study-system: NAD-dependent protein deacetylase sirtuin-2 (Homo sapiens)
assay-summary: Inhibition of SIRT2 (unknown origin) using IU179 as substrate incubated for 30 mins by Fluor de Lys sirtuin assay relative to control
Set-up: concentration or dose not given beside the values
Parameter inhibition: see the listing below.

Please review the entries below; each comes with its answer.
• Cc1ccc(NC(=O)c2ccc(S(=O)(=O)N3CCCCCC3)cc2)c(C)c1 = < 50%
• CCOc1ccc(C(C)NC(=O)COc2ccc3c(c2)CCC(=O)N3)cc1 (stereo unspecified) = < 50%

Let's switch to this molecule now.
Could you tell me which inhibition is on file for "NC(=O)C(NC(=O)CCCOc1ccc2c(c1)CCC(=O)N2)C(N)=O" ?
< 50%

====

study-system: NAD-dependent protein deacetylase sirtuin-2 (Homo sapiens)
Sequence (whole entry): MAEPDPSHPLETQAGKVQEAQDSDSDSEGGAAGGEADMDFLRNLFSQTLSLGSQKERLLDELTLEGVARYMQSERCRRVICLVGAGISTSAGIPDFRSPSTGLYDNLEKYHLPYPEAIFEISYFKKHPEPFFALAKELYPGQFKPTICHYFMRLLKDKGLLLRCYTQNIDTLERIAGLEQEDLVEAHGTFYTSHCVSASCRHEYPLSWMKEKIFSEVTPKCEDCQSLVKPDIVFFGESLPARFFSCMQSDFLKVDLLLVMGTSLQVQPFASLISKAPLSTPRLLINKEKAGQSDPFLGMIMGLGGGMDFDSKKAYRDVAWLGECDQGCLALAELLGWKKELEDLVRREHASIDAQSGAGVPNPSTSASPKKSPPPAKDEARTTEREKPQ
assay-summary: Inhibition of SIRT2 (unknown origin) using IU179 as substrate incubated for 30 mins by Fluor de Lys sirtuin assay relative to control
Set-up: concentration or dose not given beside the values
outcome-measure: inhibition (%)

[a] CC1CCCCN1S(=O)(=O)c1ccc(C(=O)Nc2ccc(N3CCOCC3)c3ccncc23)cc1 (stereo not drawn)
[b] COc1cc(/C=N/c2ccc(N3N=C(C)CC3=O)cc2)ccc1O
Between a and b , which one has the lower reported inhibition value? Choose, then provide that item's label.
b
